- TARGET ENTITY: XIAP-BIR1 (Homo sapiens)
- Sequence (P98170 10-99 limits assumed): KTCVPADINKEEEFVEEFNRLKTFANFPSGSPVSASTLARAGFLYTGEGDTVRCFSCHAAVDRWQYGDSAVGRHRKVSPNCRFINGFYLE
- TEST PROTOCOL: Trp fluorescence binding assay on XIAP-BIR1
- SETTINGS: read-out: Kd (XIAP-BIR1); Trp fluorescence titration, 23 °C, pH 8.0
ASSAY READOUT: pKd
Convention used: pKd is expressed as -log10 of the molar concentration.

COMPOUND	pKd
O=C1CCCC2=C1C(c1ccc(O)c([N+](=O)[O-])c1)Nc1ccc(C(=O)c3ccccc3)cc1N2 (stereo not drawn)	4.43

Tested on XIAP-BIR1 (Homo sapiens), the item O=C1CCCC2=C1C(c1ccc(O)cc1)Nc1ccc(C(=O)c3ccccc3)cc1N2 (stereo not drawn) showed pKd equal to 5.14

This collection of values is drawn from paper PMC9823934.
